Listing of entries alongside the reported protein stability index.
B1: TMEM120A (parent)
chain: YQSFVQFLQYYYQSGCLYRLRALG

variants of: B1; assay: protein stability index of a GFP-peptide fusion (GPS, HEK-293T) (PSI 1-6); higher = more stable; conditions: c terminus: a fixed tail appended;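 note: lentivirally expressed fusions sorted by FACS into six bins by GFP to DsRed ratio, PSI derived from sequencing read proportions per bin multiplied by bin number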
Field format: numeric only.

Solved cases (5 shown):
{"columns": ["Var", "protein stability index"],
 "data": [
  ["Y11R", 3.03],
  ["F4M", 2.91],
  ["S14H", 2.92],
  ["A22K", 1.96],
  ["Q13F", 2.43]
]}

Quick one: protein stability index for `Q6W` ?
3.03

Quick one: protein stability index for `S14V` ?
3.65

Quick one: protein stability index for `L8S` ?
1.28

Quick one: protein stability index for `S3M` ?
3.7

Quick one: protein stability index for `F4Y` ?
2.38

Quick one: protein stability index for `F4C` ?
3.14
